Molecular target: human CD40 on cells (B cells, MDDCs, stably transfected CHO cells) (human, UniProt P25942 21-277)
Sequence (P25942 21-277): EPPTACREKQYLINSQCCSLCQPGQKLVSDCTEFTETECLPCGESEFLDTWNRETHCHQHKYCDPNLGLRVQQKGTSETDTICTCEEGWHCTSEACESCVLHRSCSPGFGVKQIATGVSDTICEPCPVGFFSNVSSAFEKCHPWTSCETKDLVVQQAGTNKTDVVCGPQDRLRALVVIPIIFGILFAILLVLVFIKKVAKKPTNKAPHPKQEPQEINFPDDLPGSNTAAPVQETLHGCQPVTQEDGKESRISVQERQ
Assay: cell-based or functional assay
Quantity measured: EC50 (nM) cytokines: 50% of maximum cytokine secretion by MDDCs

1) anti-CD40 11B6 human IgG4 antibody (antibody, V domains shown, also called mAb1 [11B6 VH/VkV2]; PAB3405) VH: EVQLVQSGAEVKKPGASVKISCKASGYSFTGYYMHWVKQAHGQGLEWIGRINPYNGATSYNQNFKDRATLTVDKSTSTAYMELSSLRSEDTAVYYCAREDYVYWGQGTTVTVSS VL: DVVMTQSPLSLPVTLGQPASISCRSSQSLVHSNGNTYLHWYQQRPGQSPRLLIYKVSNRFSGVPDRFSGSGSGTDFTLKISRVEAEDVGVYFCSQSTHVPWTFGGGTKLEIKR : > 10 nM
2) anti-CD40 12B4 human IgG4 antibody (antibody, V domains shown, also called mAb3 [12B4]) VH: EVQLQQSGPELVKPGASVKMSCKASGYTFTDYVLHWVKQKPGQGLEWIGYINPYNDGTKYNEKFKGKATLTSDKSSSTAYMELSSLTSEDSAVYYCARGYPAYSGYAMDYWGQGTSVTVSS VL: DIQMTQTTSSLSASLGDRVTISCRASQDISNYLNWYQQKPDGTVKLLIYYTSRLHSGVPSRFSGSGSGTDYSLTISNLEQEDIATYFCHHGNTLPWTFGGGTK : > 10 nM
3) anti-CD40 12E12 human IgG4 antibody (antibody, V domains shown, also called mAb6 [12E12]; anti-CD40 12E12 IgG4) VH: EVQLVESGGGLVQPGGSLKLSCATSGFTFSDYYMYWVRQAPGKGLEWVAYINSGGGSTYYPDTVKGRFTISRDNAKNTLYLQMNSLRAEDTAVYYCARRGLPFHAMDYWGQGTLVTVSS VL: DIQMTQSPSSLSASVGDRVTITCSASQGISNYLNWYQQKPGKAVKLLIYYTSILHSGVPSRFSGSGSGTDYTLTISSLQPEDFATYYCQQFNKLPPTFGGGTK : > 10 nM
4) anti-CD40 24A3 human IgG4 antibody (antibody, V domains shown, also called mAb4 [24A3]) VH: DVQLQESGPDLVKPSQSLSLTCTVTGYSITSDYSWHWIRQFPGNKLEWMGYIYYSGSTNYNPSLKSRISITRDTSKNQFFLQLNSVTTEDSATYFCARFYYGYSFFDYWGQGTTLTVSS VL: QIVLTQSPAFMSASPGEKVTMTCSASSSVSYMHWYQQKSGTSPKRWIYDTSKLASGVPARFSGSGSGTSYSLTISSMEAEDAATYYCQQWSSNPLTFGAGTK : > 10 nM
